These entries and their values trace back to paper PMC9544187.

measurementDescription: Urinary concentrations of NNI compounds in wild raccoons
Format: in vivo, raccoon, Procyon lotor
conditionInfo: raccoon urine, volume‐adjusted, n = 59
measuredEndpoint: Percentile 95th urinary concentration (µg/L)
Enter your answer as a number in µg/L; do not include the unit.

Worked cases, answers included:
compound	Percentile 95th urinary concentration (µg/L)
C/C(=N\C#N)NCc1ccc(Cl)nc1 [N‐dm‐acetamiprid, N‐desmethyl‐acetamiprid]	3.28
C/C(=N\C#N)N(C)Cc1ccc(Cl)nc1 [Acetamiprid, acetamiprid]	0.33
CN1COCN(Cc2cnc(Cl)s2)/C1=N\[N+](=O)[O-] [Thiamethoxam, thiamethoxam]	0.42
CN/C(=N/CC1CCOC1)N[N+](=O)[O-] (centres unmarked) [Dinotefuran, dinotefuran]	1.11
CN/C(=N\[N+](=O)[O-])NCc1cnc(Cl)s1 [Clothianidin, clothianidin]	2.62

Please examine the following record next.
Query: State its Percentile 95th urinary concentration for this compound: O=[N+]([O-])NC1=NCCN1Cc1ccc(Cl)nc1 [Imidacloprid, imidacloprid]
Reply: 0.36
